Target: Aspartate--tRNA(Asp/Asn) ligase (Mycobacterium tuberculosis (strain ATCC 25618 / H37Rv)) (UniProt P9WFW3)
Sequence (P9WFW3 whole entry): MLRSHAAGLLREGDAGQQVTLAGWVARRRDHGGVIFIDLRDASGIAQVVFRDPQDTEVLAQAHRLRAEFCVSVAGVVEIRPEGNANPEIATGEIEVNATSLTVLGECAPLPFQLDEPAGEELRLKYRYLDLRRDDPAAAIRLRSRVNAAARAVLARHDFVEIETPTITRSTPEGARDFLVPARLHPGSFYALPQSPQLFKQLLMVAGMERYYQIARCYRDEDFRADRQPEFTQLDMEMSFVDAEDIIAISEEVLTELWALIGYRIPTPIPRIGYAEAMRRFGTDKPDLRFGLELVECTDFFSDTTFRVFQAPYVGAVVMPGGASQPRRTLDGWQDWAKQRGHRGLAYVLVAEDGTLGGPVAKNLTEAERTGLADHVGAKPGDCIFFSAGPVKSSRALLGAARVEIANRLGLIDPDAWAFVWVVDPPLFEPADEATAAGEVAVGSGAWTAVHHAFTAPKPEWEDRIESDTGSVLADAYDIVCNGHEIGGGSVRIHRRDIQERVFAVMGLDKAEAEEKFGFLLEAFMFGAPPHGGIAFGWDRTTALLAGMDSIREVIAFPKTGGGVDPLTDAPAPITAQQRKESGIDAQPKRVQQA
Assay: Assay for Asp RNA synthetase-1 from Mycobacterium tuberculosis
Type: functional
Set-up: scale not given: in the data most compounds retested in dose-response had high values
Conditions: 30 µM
REPORTED ENDPOINT: Percent Effect (%)
Give a bare numeral; the unit % is implied.

Field: example entries. Status: answers known.
INSERT INTO results (molecule, readout_value) VALUES
  ('CN(CCO)Cc1nnc(C2CCN(C3CCCCC3)CC2)n1C', 4.1),
  ('COCCn1ccc(NC(=O)Nc2ccc(C(N)=O)c(F)c2)n1', 2.25),
  ('NC(=O)c1cc(C2CCCN(CCCOc3ccccc3)C2)n[nH]1 (stereo unspecified)', -1.57);

Using the record for Cc1ccc(CC(=O)NCCCNS(C)(=O)=O)cc1 , report its Percent Effect. 2.46

Using the record for COC(=O)c1cc(OCC2CCC2)cc(C(=O)N[C@H]2CC[C@H](O)CC2)c1 , report its Percent Effect. 9.23
